Test: Metabolic stability in human liver microsomes assessed as drug remaining at 1 mg/mL after 60 mins by HPLC
Format: ADME, Microsome
Conditions: read-out: Stability
readout-kind: remaining at 1 h, 1 mg/mL (%)
Give the value, in units of %, as a plain number.

Query: What value of remaining at 1 h, 1 mg/mL has been recorded for this entry: `C=C(C)[C@@H]1CC[C@]2(C(=O)N3CCC(CCCC(=O)O)CC3)CC[C@]3(C)[C@H](CC[C@@H]4[C@@]5(C)CC[C@H](O)C(C)(C)[C@@H]5CC[C@]43C)[C@@H]12`
Response: 62.7

Query: What measured remaining at 1 h, 1 mg/mL goes with `C=C(C)[C@@H]1CC[C@]2(C(=O)NCCCCCCCC(=O)O)CC[C@]3(C)[C@H](CC[C@@H]4[C@@]5(C)CC[C@H](O)C(C)(C)[C@@H]5CC[C@]43C)[C@@H]12` ?
Response: 40.1
